protocol: E. coli acrAB mutant growth effects, primary screen, E. coli filamentation inducers, strain DRC39, OD650, 24 h (AID 1178);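 further: growth measured as culture turbidity by optical density at 650 nm; test concentration not given here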
experimental_parameters: higher = more signal, called active from +8 up or from −8 down
assay_metric: z-score

>>> measured_number("COc1cccc([C@@H]2[C@@H](C)CC[C@H]3C(=O)N4[C@H](c5cccc(OC)c5)[C@@H](C)CC[C@H]4C(=O)N23)c1")
0.697
>>> measured_number("CO[C@H]1COC(=O)[C@H](CCSC)NC(=O)CC=C[C@@H](C)COC(=O)[C@@H](OCc2ccccc2)C=C[C@@H]1C")
0.607
>>> measured_number("COCCOC(=O)N1C(=O)[C@@]2(c3cc(C#CCNC(N)=O)ccc31)[C@H](c1ccc(OCCO)cc1)N1[C@H](c3ccccc3)[C@H](c3ccccc3)OC(=O)[C@H]1[C@@H]2C(=O)N1CCCCCCC1")
-0.132
>>> measured_number("CO[C@@H]1COC(=O)[C@H](COCc2ccccc2)NC(=O)CC=C[C@@H](C)[C@H](OC)COC(=O)[C@H](COCc2ccccc2)NC(=O)CC=C[C@H]1C")
2.23
>>> measured_number("NC(=O)NCC#Cc1ccc2c(c1)[C@]1(C(=O)N2)[C@H](C(=O)N2CCCCCCC2)[C@H]2C(=O)O[C@H](c3ccccc3)[C@H](c3ccccc3)N2[C@@H]1c1ccccc1OCCO")
0.218
>>> measured_number("CCC(=O)[C@]12O[C@@]3([C@@H]4C(=O)OCC[C@@H]41)N(CC)C(C)=C(C(=O)OC)[C@@H](c1ccccc1)N3C2=O")
-0.772
>>> measured_number("C=C(CCCC)/C(=C/C[C@@H](OC(=O)c1ccncc1)c1cccc(OCCO)c1)c1cc(C(=O)OC)ccc1OC")
1.81
>>> measured_number("C=CCC(OC(C)=O)[C@@H]1[C@@H](N(Cc2cc3ccccc3o2)C(=O)Cc2ccc(F)cc2)c2cc(OCCCO)ccc2N1C(=O)c1ccc(-c2ccccc2)cc1 (stereo partly specified)")
1.17
>>> measured_number("C=CCC(OC(C)=O)[C@@H]1[C@@H](N(Cc2ccc(-c3ccccc3)cc2)C(=O)c2ccc(-c3ccccc3)cc2)c2cc(OCCCO)ccc2N1C(=O)Cc1ccc(OC)cc1 (stereo partly specified)")
-0.0223
>>> measured_number("NC(=O)NCC#Cc1ccc2c(c1)[C@]1(C(=O)N2)[C@H](c2ccccc2OCCO)N2[C@H](c3ccccc3)[C@H](c3ccccc3)OC(=O)[C@H]2[C@@H]1C(=O)N1CCN(c2ncccn2)CC1")
1.27
>>> measured_number("COC(=O)[C@@]1(Cc2ccc(OC)cc2)[C@H]2c3cc(C(=O)N(C)C)n(Cc4ccc(C)c(F)c4F)c3C[C@H]2CN1C(=O)c1ccccc1")
0.423
>>> measured_number("CCCC[C@@H]1C[C@H]1[C@@H](NC(=O)c1cccs1)c1ccc(Cl)cc1")
-0.249
>>> measured_number("CCOC(=O)C[C@H]1[C@H](OC(=O)c2cc3ccccc3oc2=O)[C@@H](NC(=O)c2ccc3ccccc3c2)c2cc(OCCCO)ccc2N1C(=O)c1ccc2ccccc2n1")
2.52
>>> measured_number("COCCCNC(=O)[C@@H]1c2ccccc2C(=O)N(CC23CC4CC(CC(C4)C2)C3)[C@H]1c1ccc(CO)cc1")
0.0488
>>> measured_number("COCCOC(=O)N1C(=O)[C@@]2(c3cc(C#CCCO)ccc31)[C@H](c1ccc(OCCO)cc1)N1[C@H](c3ccccc3)[C@H](c3ccccc3)OC(=O)[C@H]1[C@@H]2C(=O)NC[C@H](O)c1ccccc1")
0.0733
>>> measured_number("Cc1ccc([C@@H]2CC=C(C(=O)O)[C@H](c3ccccc3)N2S(=O)(=O)c2ccc(C)cc2)cc1")
-1.36
>>> measured_number("CC(C)[Si](OCCCNS(=O)(=O)c1ccc(Br)cc1)(C(C)C)C(C)C")
2.79
>>> measured_number("COCCOC(=O)N1C(=O)[C@@]2(c3cc(C#CC4(O)CCCCCC4)ccc31)[C@H](C(=O)N1CCCCCCC1)[C@H]1C(=O)O[C@H](c3ccccc3)[C@H](c3ccccc3)N1[C@@H]2c1ccc(O)cc1")
0.286
>>> measured_number("COCCOC(=O)N1C(=O)[C@@]2(c3cc(C#CCCO)ccc31)[C@H](c1ccc(O)cc1)N1[C@H](c3ccccc3)[C@H](c3ccccc3)OC(=O)[C@H]1[C@@H]2C(=O)Nc1nc2ccccc2s1")
0.438
>>> measured_number("O=C(NCC(O)CO)[C@]1(Cc2ccccc2)N=C(c2ccc(OCCCO)cc2)O[C@@H]1c1ccccc1 (stereo partly specified)")
2.22
>>> measured_number("COCC(=C=CC[C@H](O)c1ccc(OCCO)cc1)C[C@H](O)c1ccccn1")
1.74
>>> measured_number("C=CC[C@@]12N=C(c3ccc(OCCCO)cc3)O[C@@H]1c1ccccc1CN(Cc1ccccc1)C2=O")
1.4
>>> measured_number("CCOC(=O)C1=C[C@@H](c2ccccc2)N(S(=O)(=O)c2ccc(C)cc2)[C@H]1c1ccc(F)cc1")
-0.213
>>> measured_number("COCCOC(=O)N1C(=O)[C@@]2(c3ccccc31)[C@H](C(=O)N1CCc3cc(OC)c(OC)cc3C1)[C@H]1C(=O)O[C@H](c3ccccc3)[C@H](c3ccccc3)N1[C@@H]2c1ccccc1OCCO")
0.659
>>> measured_number("COC(=O)c1c(CC[C@@H](CO)NC(=O)N[C@H](Cn2cc(-c3cncn3C)nn2)C(C)C)oc(C(C)=O)c1C(=O)OC")
2.37
>>> measured_number("O=C1O[C@H](c2ccccc2)[C@H](c2ccccc2)N2[C@H]1[C@@H](C(=O)NC[C@H](O)c1ccccc1)[C@]1(C(=O)Nc3ccc(C#CC4(O)CCCCCC4)cc31)[C@H]2c1ccc(OCCO)cc1")
1.66
